Target: T1, recombinant human IL-2 receptor beta containing a His-tag and Avi-tag (human, UniProt P14784 27-239)
T1 construct: Bought; attached to the SAX2 biosensor; also called CD122; IL-2R β; not shown: His-tag and Avi-tag
T1 sequence (looked up): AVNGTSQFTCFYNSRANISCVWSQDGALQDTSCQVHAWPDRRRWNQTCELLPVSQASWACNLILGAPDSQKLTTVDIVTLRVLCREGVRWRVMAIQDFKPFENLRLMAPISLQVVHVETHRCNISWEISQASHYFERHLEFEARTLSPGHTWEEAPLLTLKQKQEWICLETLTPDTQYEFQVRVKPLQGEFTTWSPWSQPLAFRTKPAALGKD
Assay: BLI (Octet R8), receptor on SAX2 sensor
Bridges are numbered along the chain shown (N, C = ends). Primed or numbered codes have the meaning given here. [ ]: non-standard residue; d: D form. Ygp = O-(8x polyethylene glycol-amino)-tyrosine (Tyr, amino-capped PEG8); Yn3 = O-(9x polyethylene glycol-azido)-tyrosine (Tyr, azide-capped PEG9); Ygp″ = O-(8x polyethylene glycol-amino)-tyrosine; Yn3″ = O-(9x polyethylene glycol-azido)-tyrosine; Ygp(3) = O-(PEG8-amino)-tyrosine; Yn3(3) = O-(PEG9-azido)-tyrosine; PEG4′ = 4x polyethylene glycol; PEG9′ = 9x polyethylene glycol; hSer = N[C@@H](CCO)C(=O)O; Nle = CCCC[C@H](N)C(=O)O
readout-label: kon

CMP-166, MMP2 cleaved (ligand, also: glutaryl-PEG4-peptide bridge Ala1 to Lys23 cut by MMP2, site not given here, ring opened, Tested after MMP2 treatment) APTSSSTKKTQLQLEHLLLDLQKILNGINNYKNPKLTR[Nle]L[hSer][Yn3]KF[Ygp][Nle]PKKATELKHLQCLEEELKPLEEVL[hSer]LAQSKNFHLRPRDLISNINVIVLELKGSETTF[hSer]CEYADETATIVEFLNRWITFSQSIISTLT; 283000 M⁻¹ s⁻¹
CMP-167, MMP2 cleaved (ligand, ends and bridges not checked; also: MMP2 cleaved, ring opened, cut site and remnants not given here, Tested after MMP2 treatment) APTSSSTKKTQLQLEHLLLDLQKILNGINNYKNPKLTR[Nle]L[hSer][Yn3″]KF[Ygp″][Nle]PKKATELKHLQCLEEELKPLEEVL[hSer]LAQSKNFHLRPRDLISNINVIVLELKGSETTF[hSer]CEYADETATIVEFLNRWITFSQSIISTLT; 345000 M⁻¹ s⁻¹
CMP-136 (ligand, bridge N-37; not fully specified (bridges)) [PEG9′]PLGLAG[PEG9′]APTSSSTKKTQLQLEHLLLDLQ[Nle]ILNGIENYKNPKLTR[Nle]L[hSer][Yn3]KF[Ygp][Nle]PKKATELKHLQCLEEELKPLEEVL[hSer]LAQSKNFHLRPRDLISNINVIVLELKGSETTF[hSer]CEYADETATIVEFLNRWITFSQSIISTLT; 909000 M⁻¹ s⁻¹
CMP-138 (ligand, bridge (positions not given here); not fully specified (bridges); numbers in words are those of the source; also: Cys58-Cys105 disulfide expected from oxidative folding) [PEG4′]SGGPGPAGMKGLPGS[PEG4′]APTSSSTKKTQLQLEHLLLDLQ[Nle]ILNGIENYKNPKLTR[Nle]L[hSer][Yn3(3)]KF[Ygp(3)][Nle]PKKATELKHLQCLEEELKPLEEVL[hSer]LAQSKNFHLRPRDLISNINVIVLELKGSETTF[hSer]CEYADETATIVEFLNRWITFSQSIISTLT; 898000 M⁻¹ s⁻¹
CMP-165, MMP2 cleaved (ligand, also: glutaryl-peptide bridge Ala1 to Lys23 cut by MMP2, site not given here, ring opened, Tested after MMP2 treatment) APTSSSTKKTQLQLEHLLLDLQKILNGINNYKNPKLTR[Nle]L[hSer][Yn3]KF[Ygp][Nle]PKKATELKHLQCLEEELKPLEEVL[hSer]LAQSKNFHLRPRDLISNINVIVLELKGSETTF[hSer]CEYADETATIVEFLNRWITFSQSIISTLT; 213000 M⁻¹ s⁻¹

Reported kon for CMP-319 (ligand, lactam N-33; ends not checked) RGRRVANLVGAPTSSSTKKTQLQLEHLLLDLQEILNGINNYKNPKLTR[Nle]L[hSer][Yn3]KF[Ygp][Nle]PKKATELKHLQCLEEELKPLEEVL[hSer]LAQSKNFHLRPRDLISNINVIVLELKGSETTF[hSer]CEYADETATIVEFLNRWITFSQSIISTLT : what is it? 206000 M⁻¹ s⁻¹
